- System: Rattus norvegicus
- assay-explanation: Percent efficacy (reduction in blood glucose) at 70 umol/kg in STZ diabetic rats after 8.25 days.
- Format: functional
Values of Efficacy strictly less than 10% map to Y, and values of at least 10% map to N.

Past entries and their recorded results:
molecule	subject-of-test	label
CC(C)(C)C(=O)c1ccc(COCCN2CCOCC2)cc1	Rattus norvegicus	Y
CCCCCCCCCCCCCCCC(=O)OCC(COC(=O)CCCCCCCCCCCCCCC)OCc1ccc(C(=O)C(C)(C)C)cc1	Rattus norvegicus	N
CC(C)(C)C(=O)c1ccc(COCc2ccc(COCc3ccc(C(=O)C(C)(C)C)cc3)o2)cc1	Rattus norvegicus	Y
CCCCCCCC/C=C/CCCCCCCC(=O)OCC(COCc1ccc(C(=O)C(C)(C)C)cc1)OC(=O)CCCCCCC/C=C/CCCCCCCC (stereo not drawn)	Rattus norvegicus	Y
CC(C)(C)C(=O)c1ccc(COCc2cccc(COCc3ccc(C(=O)C(C)(C)C)cc3)n2)cc1	Rattus norvegicus	N

Ask: Could you please tell me whether Efficacy recorded for CC(C)(C)C(=O)c1ccc(COCC(COCc2ccc(C(=O)C(C)(C)C)cc2)OCc2ccc(C(=O)C(C)(C)C)cc2)cc1 is less than 10%?
Result: N

Ask: Could you please tell me whether Efficacy recorded for CCCCCCCCCCCCCCCC(=O)OCC(COC(=O)CCCCCCCCCCCCCCC)OC(=O)c1ccc(C(=O)C(C)(C)C)cc1 is less than 10%?
Result: N

Ask: Could you please tell me whether Efficacy recorded for CC(C)(C)C(=O)c1ccc(COCC(O)CO)cc1 (stereo not drawn) is less than 10%?
Result: Y

Ask: Could you please tell me whether Efficacy recorded for CCCCCCCCCCCCCCCC(=O)OCC(COCc1ccc(C(=O)C(C)(C)C)cc1)OC(=O)CCCCCCCCCCCCCCC (stereo not drawn) is less than 10%?
Result: Y

* * *

- assay-explanation: Percent control of beta-hydroxybutyrate in normal 18 hr-fasted rat model dosed at 100 umol/Kg
- Type: functional
Each entry below lists one item and its recorded Control value.

molecule	recorded-value
CCCCCCCCCCCCCCCC(=O)OCC(COC(=O)CCCCCCCCCCCCCCC)OCc1ccc(C(=O)C(C)(C)C)cc1	<57.2%
CC(C)(C)C(=O)c1ccc(C(=O)OC(CO)CO)cc1	<10.9%
CCCCCCCCCCCCCCCC(=O)OCC(COC(=O)CCCCCCCCCCCCCCC)OC(=O)CCc1ccc(C(=O)C(C)(C)C)cc1	<24.6%
CC(C)(C)C(=O)c1ccc(COCC(COCc2ccc(C(=O)C(C)(C)C)cc2)OCc2ccc(C(=O)C(C)(C)C)cc2)cc1	<19.6%
CCCCCCCCCCCCCCCC(=O)OCC(COC(=O)CCCCCCCCCCCCCCC)OC(=O)c1ccc(C(=O)C(C)(C)C)cc1	<23.6%

Ask: Respond only with Control recorded for CC(C)(C)C(=O)c1ccc(COCC2(COCc3ccc(C(=O)C(C)(C)C)cc3)CCCO2)cc1
Result: <12.7%

Ask: Respond only with Control recorded for CCCCCCCCOCC(COCCCCCCCC)OC(=O)c1ccc(C(=O)C(C)(C)C)cc1
Result: <20.1%

Ask: Respond only with Control recorded for CC(C)(C)C(O)c1ccc(C(=O)OCC(COC(=O)c2ccc(C(O)C(C)(C)C)cc2)OC(=O)c2ccc(C(O)C(C)(C)C)cc2)cc1 (centres undefined)
Result: <32.5%

Ask: Respond only with Control recorded for CC(C)(C)C(=O)c1ccc(C(=O)OCCC(COC(=O)c2ccc(C(=O)C(C)(C)C)cc2)COC(=O)c2ccc(C(=O)C(C)(C)C)cc2)cc1
Result: <28.8%

Ask: Respond only with Control recorded for CC(C)(C)C(=O)c1ccc(COCc2cccc(COCc3ccc(C(=O)C(C)(C)C)cc3)n2)cc1
Result: <32.5%

Ask: Respond only with Control recorded for CC(C)(C)C(=O)c1ccc(COC/C=C/COCc2ccc(C(=O)C(C)(C)C)cc2)cc1
Result: <15%

Ask: Respond only with Control recorded for CC(C)(C)C(=O)c1ccc(COCCN2CCOCC2)cc1
Result: <23.8%

Ask: Respond only with Control recorded for CC(C)(C)C(=O)c1ccc(C(=O)OCC(CO)(CO)COC(=O)c2ccc(C(=O)C(C)(C)C)cc2)cc1
Result: <14.3%

Ask: Respond only with Control recorded for CC(C)(C)C(=O)c1ccc(C(=O)OCC(O)COC(=O)c2ccc(C(=O)C(C)(C)C)cc2)cc1
Result: <11.9%

Ask: Respond only with Control recorded for COCC(COC)OC(=O)c1ccc(C(=O)C(C)(C)C)cc1
Result: <15.5%

Ask: Respond only with Control recorded for CC(C)(C)C(=O)c1ccc(C(=O)OCC(COC(=O)c2ccc(C(=O)C(C)(C)C)cc2)(COC(=O)c2ccc(C(=O)C(C)(C)C)cc2)COC(=O)c2ccc(C(=O)C(C)(C)C)cc2)cc1
Result: 96.2%

Ask: Respond only with Control recorded for CC(C)(C)C(=O)c1ccc(COCC(O)CO)cc1 (centres undefined)
Result: <33.5%

Ask: Respond only with Control recorded for CC(C)(C)C(=O)c1ccc(C(=O)OCC(O)CO)cc1 (centres undefined)
Result: <13.6%

Ask: Respond only with Control recorded for CC(C)(C)C(=O)c1ccc(CSCc2ccccc2)cc1
Result: 59.5%

* * *

- assay-explanation: Area under the curve was evaluated by plasma concentration and time curve in normal rat after oral dosing of 300 uM/kg
- Format: ADME, organism-based
Each entry below lists one item and its recorded AUC value.
Report the figure in µg·h/mL without appending any unit label.

compound	AUC (µg·h/mL)
CC(C)(C)C(=O)c1ccc(C(=O)OCC(COC(=O)c2ccc(C(=O)C(C)(C)C)cc2)OC(=O)c2ccc(C(=O)C(C)(C)C)cc2)cc1	128
CCCCCCCCCCCCCCCC(=O)OCC(COC(=O)c1ccc(C(=O)C(C)(C)C)cc1)OC(=O)CCCCCCCCCCCCCCC (centres undefined)	1460
CC(C)(C)C(=O)c1ccc(C(=O)OC(CO)CO)cc1	1480

Let us examine a further case.
Ask: Respond only with AUC recorded for Cc1ccc(C2(C(C)(C)C)OCCO2)cc1
Result: 1510

* * *

- Tested on: Rattus norvegicus
- assay-explanation: Percent efficacy (reduction in blood glucose) at 70 umol/kg in STZ diabetic rats after 8.25 days.
- Type: functional
Each entry below lists one item and its recorded Efficacy value.

Some compounds with recorded Efficacy:
mol	Efficacy
CC(C)(C)C(=O)c1ccc(COC/C=C/COCc2ccc(C(=O)C(C)(C)C)cc2)cc1	1.4%
CC(C)(C)C(=O)c1ccc(C(=O)OCC(COC(=O)c2ccc(C(=O)C(C)(C)C)cc2)OC(=O)c2ccc(C(=O)C(C)(C)C)cc2)cc1	<103.7%

Let us examine a further case.
Ask: Respond only with Efficacy recorded for CC(C)(C)C(=O)c1ccc(C(=O)OCC(O)COC(=O)c2ccc(C(=O)C(C)(C)C)cc2)cc1
Result: <99.5%

* * *

- assay-explanation: Percent control of beta-hydroxybutyrate in normal 18 hr-fasted rat model dosed at 100 umol/Kg
- Type: functional
Each entry below lists one item and its recorded Control value.

compound	measured-property	recorded-value
CCCCCCCCCCCCCCCC(=O)OCC(COCc1ccc(C(=O)C(C)(C)C)cc1)OC(=O)CCCCCCCCCCCCCCC (stereo not drawn)	Control	<31.2%
CC(C)(C)C(=O)c1ccc(CSCCSCc2ccc(C(=O)C(C)(C)C)cc2)cc1	Control	82.6%
CCCCCCCC/C=C/CCCCCCCC(=O)OCC(COCc1ccc(C(=O)C(C)(C)C)cc1)OC(=O)CCCCCCC/C=C/CCCCCCCC (stereo not drawn)	Control	<20.7%
CC(C)(C)C(=O)c1ccc(C(=O)OCC(COC(=O)c2ccc(C(=O)C(C)(C)C)cc2)OC(=O)c2ccc(C(=O)C(C)(C)C)cc2)cc1	Control	<22.9%
CC(C)(C)C(=O)c1ccc(COCc2ccc(COCc3ccc(C(=O)C(C)(C)C)cc3)o2)cc1	Control	<17.3%
CCCCCCCCCCCCCCCC(=O)OC(CO)COC(=O)c1ccc(C(=O)C(C)(C)C)cc1 (stereo not drawn)	Control	<22.7%
CCCCCCCCCCCCCCCC(=O)OCC(COC(=O)c1ccc(C(=O)C(C)(C)C)cc1)OC(=O)CCCCCCCCCCCCCCC (stereo not drawn)	Control	<20.5%

Ask: Respond only with Control recorded for Cc1ccc(C2(C(C)(C)C)OCCO2)cc1
Result: <12%

* * *

- assay-explanation: Area under the curve was evaluated by plasma concentration and time curve in normal rat after oral dosing of 300 uM/kg
- Type: ADME, organism-based
Each entry below lists one item and its recorded AUC value.

molecule	AUC
CCCCCCCCCCCCCCCC(=O)OCC(COC(=O)CCCCCCCCCCCCCCC)OC(=O)c1ccc(C(=O)C(C)(C)C)cc1	885 µg·h/mL

Ask: Respond only with AUC recorded for CC(C)(C)C(=O)c1ccc(C(=O)OCC(O)COC(=O)c2ccc(C(=O)C(C)(C)C)cc2)cc1
Result: 1780 µg·h/mL

Ask: Respond only with AUC recorded for CCCCCCCCCCCCCCCC(=O)OCC(COC(=O)CCCCCCCCCCCCCCC)OC(=O)CCc1ccc(C(=O)C(C)(C)C)cc1
Result: 930 µg·h/mL

Ask: Respond only with AUC recorded for COCC(COC)OC(=O)c1ccc(C(=O)C(C)(C)C)cc1
Result: 1130 µg·h/mL

Ask: Respond only with AUC recorded for CC(C)(C)C(=O)c1ccc(C(=O)OCC(O)CO)cc1 (stereo not drawn)
Result: 1450 µg·h/mL

Ask: Respond only with AUC recorded for CCCCCCCCCCCCCCCC(=O)OC(CO)COC(=O)c1ccc(C(=O)C(C)(C)C)cc1 (stereo not drawn)
Result: 645 µg·h/mL

Ask: Respond only with AUC recorded for CC(C)(C)C(O)c1ccc(C(=O)OCC(COC(=O)c2ccc(C(O)C(C)(C)C)cc2)OC(=O)c2ccc(C(O)C(C)(C)C)cc2)cc1 (stereo not drawn)
Result: 1160 µg·h/mL

Ask: Respond only with AUC recorded for CCCCCCCCCCCCCCCC(=O)OCC(COC(=O)CCCCCCCCCCCCCCC)OCc1ccc(C(=O)C(C)(C)C)cc1
Result: 92 µg·h/mL

Values were extracted from ChEMBL document CHEMBL1134343.
